- assay.target: telomerase (MCF-7 cell lysates) (Homo sapiens, UniProt O14746)
- Construct: endogenous in cells; host or cells: MCF-7
- Sequence (O14746 whole entry): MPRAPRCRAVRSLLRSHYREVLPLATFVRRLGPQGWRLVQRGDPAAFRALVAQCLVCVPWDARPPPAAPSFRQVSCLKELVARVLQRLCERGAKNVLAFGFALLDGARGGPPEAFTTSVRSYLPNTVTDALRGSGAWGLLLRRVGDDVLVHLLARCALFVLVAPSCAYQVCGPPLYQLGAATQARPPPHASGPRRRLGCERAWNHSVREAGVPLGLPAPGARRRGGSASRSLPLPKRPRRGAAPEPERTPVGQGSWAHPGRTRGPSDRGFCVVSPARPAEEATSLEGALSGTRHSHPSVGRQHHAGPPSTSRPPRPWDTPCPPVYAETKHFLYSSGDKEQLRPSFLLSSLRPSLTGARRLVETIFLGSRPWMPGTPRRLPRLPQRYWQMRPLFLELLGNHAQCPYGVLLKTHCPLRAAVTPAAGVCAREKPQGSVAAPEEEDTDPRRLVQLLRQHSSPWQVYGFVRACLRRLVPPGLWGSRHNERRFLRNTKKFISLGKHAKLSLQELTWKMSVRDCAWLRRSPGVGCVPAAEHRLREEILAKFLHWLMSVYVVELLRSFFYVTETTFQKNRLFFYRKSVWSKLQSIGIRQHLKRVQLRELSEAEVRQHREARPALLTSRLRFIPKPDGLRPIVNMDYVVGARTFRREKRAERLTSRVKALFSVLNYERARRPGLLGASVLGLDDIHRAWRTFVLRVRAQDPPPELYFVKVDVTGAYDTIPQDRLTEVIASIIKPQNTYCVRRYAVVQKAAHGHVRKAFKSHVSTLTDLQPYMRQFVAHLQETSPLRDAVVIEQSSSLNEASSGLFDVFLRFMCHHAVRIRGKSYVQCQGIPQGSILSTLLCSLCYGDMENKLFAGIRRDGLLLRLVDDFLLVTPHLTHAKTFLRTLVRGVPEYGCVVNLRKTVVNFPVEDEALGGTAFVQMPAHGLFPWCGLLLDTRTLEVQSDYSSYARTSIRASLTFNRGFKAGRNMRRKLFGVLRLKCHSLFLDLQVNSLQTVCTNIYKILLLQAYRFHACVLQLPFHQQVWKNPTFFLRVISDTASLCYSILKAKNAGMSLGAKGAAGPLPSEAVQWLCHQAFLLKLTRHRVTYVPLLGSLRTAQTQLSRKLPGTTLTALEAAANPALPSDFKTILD
- Sequence (O60832 whole entry partner): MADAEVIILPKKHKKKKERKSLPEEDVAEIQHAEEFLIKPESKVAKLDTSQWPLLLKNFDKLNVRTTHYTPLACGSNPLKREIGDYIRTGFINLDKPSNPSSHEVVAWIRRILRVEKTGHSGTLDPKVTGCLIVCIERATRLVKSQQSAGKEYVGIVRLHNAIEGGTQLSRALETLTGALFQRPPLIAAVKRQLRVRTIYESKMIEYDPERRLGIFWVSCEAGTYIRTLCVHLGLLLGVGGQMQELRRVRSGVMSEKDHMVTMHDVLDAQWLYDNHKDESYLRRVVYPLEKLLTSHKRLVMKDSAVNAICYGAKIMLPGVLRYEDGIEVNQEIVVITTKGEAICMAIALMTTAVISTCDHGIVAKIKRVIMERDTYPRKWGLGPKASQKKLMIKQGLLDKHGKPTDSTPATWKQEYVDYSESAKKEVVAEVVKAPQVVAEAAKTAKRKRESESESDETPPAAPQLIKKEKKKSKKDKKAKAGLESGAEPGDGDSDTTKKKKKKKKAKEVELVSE
- Sequence (Q9NPE3 whole entry partner): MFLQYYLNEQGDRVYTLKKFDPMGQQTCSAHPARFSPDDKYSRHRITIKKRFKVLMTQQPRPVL
- Sequence (Q9NX24 whole entry partner): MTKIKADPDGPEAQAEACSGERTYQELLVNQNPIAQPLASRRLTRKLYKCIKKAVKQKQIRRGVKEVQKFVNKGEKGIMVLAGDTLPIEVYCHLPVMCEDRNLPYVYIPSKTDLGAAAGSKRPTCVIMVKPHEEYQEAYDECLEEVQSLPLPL
- Sequence (Q9NY12 whole entry partner): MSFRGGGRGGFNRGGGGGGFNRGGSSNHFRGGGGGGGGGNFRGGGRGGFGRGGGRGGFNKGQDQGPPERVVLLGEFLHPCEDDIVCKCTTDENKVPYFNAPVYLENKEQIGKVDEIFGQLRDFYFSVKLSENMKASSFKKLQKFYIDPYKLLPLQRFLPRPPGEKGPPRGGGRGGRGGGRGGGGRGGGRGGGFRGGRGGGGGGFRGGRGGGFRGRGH
- Sequence (Q9BUR4 whole entry partner): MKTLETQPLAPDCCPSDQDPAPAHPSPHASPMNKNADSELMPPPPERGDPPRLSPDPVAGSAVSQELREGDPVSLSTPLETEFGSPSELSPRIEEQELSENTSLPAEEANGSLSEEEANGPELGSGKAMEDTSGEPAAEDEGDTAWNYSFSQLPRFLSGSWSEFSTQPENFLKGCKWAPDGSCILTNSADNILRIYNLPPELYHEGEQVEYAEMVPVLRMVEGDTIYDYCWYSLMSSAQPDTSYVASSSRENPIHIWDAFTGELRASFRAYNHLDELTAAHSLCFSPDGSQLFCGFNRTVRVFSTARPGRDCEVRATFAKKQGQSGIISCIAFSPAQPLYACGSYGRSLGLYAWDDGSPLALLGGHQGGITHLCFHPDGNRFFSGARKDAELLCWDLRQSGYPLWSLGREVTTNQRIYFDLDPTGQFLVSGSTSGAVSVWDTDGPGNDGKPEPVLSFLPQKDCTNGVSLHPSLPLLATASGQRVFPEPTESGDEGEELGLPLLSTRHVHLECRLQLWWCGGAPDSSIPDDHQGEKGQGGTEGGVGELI
- measurement.protocol: TRAP assay in cell lysates (PCR-based telomerase activity assay)
- Type: biochemical
- applied.conditions: TRAP assay in MCF7 cell lysate in vitro; read-out: IC50
pIC50: −log10 of the molar value.
measured.metric: pIC50

[a] C=C1C(=O)[C@](C)(C(=O)OC)[C@H](CCc2cn(Cc3ccc(F)cc3F)nn2)O[C@@H]1C
[b] C=C1C(=O)[C@]2(OC)C(=O)O[C@@]34C[C@H](C)C(C(=O)O)=C[C@@H]3CCC[C@@H](C)C[C@@H](C)[C@H]1O[C@H]24 [chrolactomycin, reference compound]
[in] Smaller pIC50 value? Options are a and b The response must carry the label of the picked entry.
[out] b

Values from patent US11518750B2
